# credit: patent US11999727B2

# studySystem: PRMT5 (Homo sapiens)
# Construct: purchased Viva (custom protein)
# testSummary: PRMT5 biochemical IC50 assay with SAM as cofactor
# reportedConditions: PRMT5, SAM as cofactor; read-out: SAM IC50
quantityKind: IC50

Field: example entries. Status: answers known.
C[C@@H]1CC[C@@H](c2ccc3c(c2)C(=O)NC3)N(C(=O)C(=O)Nc2cncc(C(N)=O)c2)C1 (single isomer, unassigned) :: 50 to 500 nM
Cc1cc(NC(=O)C(=O)N2C[C@@H](C)CC[C@@H]2c2ccccc2)cnc1C (single isomer, unassigned) :: > 500 nM
C[C@H]1CC[C@@H](c2cccnc2)N(C(=O)C(=O)Nc2cncc(C(N)=O)c2)C1 (single isomer, unassigned) :: 50 to 500 nM
CCc1cc(NC(=O)C(=O)N2C[C@@H](C)CC[C@@H]2c2ccc(N3C[C@H]4CN(C)CC[C@H]4C3)cc2)cnc1N (racemic) :: 50 to 500 nM
COc1ncc(NC(=O)C(=O)N2C[C@@H](C)CC[C@@H]2c2ccc3c(c2)OCCN3)cc1C(N)=O (racemic) :: 50 to 500 nM

Q) For Cc1cc(NC(=O)C(=O)N2C[C@H](C)CC[C@H]2c2cccc(N3CCN(C)CC3)c2)cnc1N (single isomer, unassigned) [Compound 1121] , what is its reported IC50?
A) > 500 nM

* * *

# IC50 listing for each entry below
# studySystem: PRMT5 (Homo sapiens, UniProt O14744)
# Construct: purchased Viva (custom protein)
# Sequence (O14744 whole entry): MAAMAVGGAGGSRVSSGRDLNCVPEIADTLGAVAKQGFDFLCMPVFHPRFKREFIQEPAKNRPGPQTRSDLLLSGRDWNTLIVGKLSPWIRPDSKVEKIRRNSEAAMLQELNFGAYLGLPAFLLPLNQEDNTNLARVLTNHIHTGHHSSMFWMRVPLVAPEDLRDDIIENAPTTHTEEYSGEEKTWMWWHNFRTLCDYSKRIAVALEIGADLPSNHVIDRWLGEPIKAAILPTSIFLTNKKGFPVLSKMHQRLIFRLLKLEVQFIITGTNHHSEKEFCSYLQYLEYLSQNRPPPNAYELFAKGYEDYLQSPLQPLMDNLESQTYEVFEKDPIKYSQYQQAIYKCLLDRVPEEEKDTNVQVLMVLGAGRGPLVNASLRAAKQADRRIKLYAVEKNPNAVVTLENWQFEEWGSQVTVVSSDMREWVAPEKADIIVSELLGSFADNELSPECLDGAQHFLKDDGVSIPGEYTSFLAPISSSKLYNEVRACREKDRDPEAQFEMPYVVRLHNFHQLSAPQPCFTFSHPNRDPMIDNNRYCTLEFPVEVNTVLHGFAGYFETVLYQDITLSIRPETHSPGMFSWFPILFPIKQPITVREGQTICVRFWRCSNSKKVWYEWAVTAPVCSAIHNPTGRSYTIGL
# Sequence (Q9BQA1 whole entry partner): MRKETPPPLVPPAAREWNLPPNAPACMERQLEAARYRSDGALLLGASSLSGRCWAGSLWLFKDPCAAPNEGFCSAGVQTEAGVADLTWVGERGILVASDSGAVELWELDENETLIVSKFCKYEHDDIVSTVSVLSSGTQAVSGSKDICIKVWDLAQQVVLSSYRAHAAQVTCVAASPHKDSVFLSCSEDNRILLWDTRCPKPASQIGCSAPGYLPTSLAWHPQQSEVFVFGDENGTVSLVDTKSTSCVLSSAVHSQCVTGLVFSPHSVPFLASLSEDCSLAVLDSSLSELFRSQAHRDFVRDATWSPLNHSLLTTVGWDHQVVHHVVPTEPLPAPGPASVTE
# testSummary: PRMT5 biochemical IC50 assay with MTA as cofactor
# reportedConditions: PRMT5, MTA as cofactor; read-out: MTA IC50

The cases that follow already have their IC50 on record.
CCc1cc(NC(=O)C(=O)N2C[C@@H](C)CC[C@@H]2c2cccc(C(F)(F)CCN(C)C)c2)cnc1N :: < 50 nM
C[C@@H]1CC[C@@H](c2ccc3c(c2)C(=O)NC3)N(C(=O)C(=O)Nc2cncc(C(N)=O)c2)C1 (single isomer, unassigned) :: < 50 nM
COc1ncc(NC(=O)C(=O)N2C[C@@H](C)CC[C@@H]2c2ccc3cn(C4CCN(C)CC4)nc3c2)cc1C(N)=O (racemic) :: < 50 nM
CCc1cc(NC(=O)C(=O)N2C[C@@H](C)CC[C@@H]2c2ccc3sc(C4CCN(C)C4)nc3c2)cnc1N (stereo partly drawn) :: < 50 nM
CCc1cc(NC(=O)C(=O)N2C[C@@H](C)[C@@H](OC(C)C)C[C@@H]2c2ccc3scnc3c2)cnc1N (racemic) :: 50 to 500 nM

Moving on to the next compound.
Q) Requested field: IC50. Item: C[C@@H]1CC[C@@H](c2ccc(C(F)(F)F)c(Cl)c2)N(C(=O)C(=O)Nc2cncc(C(N)=O)c2)C1 (single isomer, unassigned)
A) > 500 nM

* * *

# studySystem: PRMT5 (Homo sapiens)
# Construct: purchased Viva (custom protein)
# testSummary: PRMT5 biochemical IC50 assay with MTA as cofactor
# reportedConditions: PRMT5, MTA as cofactor; read-out: MTA IC50
pIC50: −log10 of the molar value.
quantityKind: pIC50

The following compounds have reported results that may help.
Cc1cc(NC(=O)C(=O)N2C[C@H](C)CC[C@H]2c2cn[nH]c2)cnc1N (single isomer, unassigned) :: < 6.30
C[C@@H]1CC[C@@H](c2ccc(O)c(F)c2)N(C(=O)C(=O)Nc2cncc(C(N)=O)c2)C1 (single isomer, unassigned) :: < 6.30
Cc1cc(NC(=O)C(=O)N2C[C@H](C)CC[C@H]2c2ccc3ncsc3c2)cnc1N (racemic) :: > 7.30
CCc1cc(NC(=O)C(=O)N2C[C@@H](C)CC[C@@H]2c2ccc3nn(C4CCN(C)CC4)cc3c2)cnc1N :: > 7.30
C[C@@H]1CC[C@@H](c2ccc3c(c2)CCCN3)N(C(=O)C(=O)Nc2cncc(C(N)=O)c2)C1 (single isomer, unassigned) :: > 7.30

Turning now to a further compound:
Q) Please provide the recorded pIC50 for `CCc1cc(NC(=O)C(=O)N2C[C@@H](C)CC[C@@H]2c2ccc3sc(C4CCN(CCC(F)(F)F)CC4)nc3c2)cnc1N` , tested on PRMT5 (Homo sapiens).
A) > 7.30
